measurement.target: Na+K+Cl− co-transporter (Rattus norvegicus, UniProt E9PTX9)
Construct: endogenous in cells; host or cells: A7r5 cells
Sequence (E9PTX9 1-1203): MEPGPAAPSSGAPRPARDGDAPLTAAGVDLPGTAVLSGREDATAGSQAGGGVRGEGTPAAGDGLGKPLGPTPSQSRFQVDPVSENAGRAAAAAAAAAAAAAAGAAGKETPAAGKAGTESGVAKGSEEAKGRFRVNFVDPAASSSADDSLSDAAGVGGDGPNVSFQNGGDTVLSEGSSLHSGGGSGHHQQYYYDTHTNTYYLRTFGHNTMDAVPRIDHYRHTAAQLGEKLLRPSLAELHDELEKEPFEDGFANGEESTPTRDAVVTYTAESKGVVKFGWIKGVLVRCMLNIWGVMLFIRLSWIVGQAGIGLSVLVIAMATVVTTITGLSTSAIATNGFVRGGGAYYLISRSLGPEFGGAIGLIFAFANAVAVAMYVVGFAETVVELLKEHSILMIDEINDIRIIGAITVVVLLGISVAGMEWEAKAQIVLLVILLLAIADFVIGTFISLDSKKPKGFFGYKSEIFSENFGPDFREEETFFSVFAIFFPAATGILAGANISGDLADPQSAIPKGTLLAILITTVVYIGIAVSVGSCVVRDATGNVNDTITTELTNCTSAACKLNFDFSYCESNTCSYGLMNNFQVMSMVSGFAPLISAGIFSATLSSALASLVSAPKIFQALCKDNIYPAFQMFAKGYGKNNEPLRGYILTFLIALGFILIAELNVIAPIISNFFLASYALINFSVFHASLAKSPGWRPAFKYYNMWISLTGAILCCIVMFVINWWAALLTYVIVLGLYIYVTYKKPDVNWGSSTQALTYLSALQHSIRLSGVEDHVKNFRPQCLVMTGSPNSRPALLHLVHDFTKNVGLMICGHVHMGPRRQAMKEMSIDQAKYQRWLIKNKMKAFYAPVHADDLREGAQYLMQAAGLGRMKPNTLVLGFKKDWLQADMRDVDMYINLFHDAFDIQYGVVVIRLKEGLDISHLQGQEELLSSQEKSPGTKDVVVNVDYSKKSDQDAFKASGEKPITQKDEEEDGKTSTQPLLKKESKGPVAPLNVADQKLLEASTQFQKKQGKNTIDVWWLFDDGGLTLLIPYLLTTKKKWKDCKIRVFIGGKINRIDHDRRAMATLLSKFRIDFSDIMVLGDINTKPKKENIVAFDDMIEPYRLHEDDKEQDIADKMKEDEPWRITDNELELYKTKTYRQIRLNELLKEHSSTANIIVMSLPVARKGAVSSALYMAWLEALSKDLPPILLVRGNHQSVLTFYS
measurement.protocol: Na+K+Cl− cotransporter assay, 86Rb uptake in A7r5 cells
Assay type: cell-based
measurement.parameters: 10 μM, 10 minutes at 37° C.
readout.name: % of Control Value (%)

>>> print(df.to_string())
                                smiles_code        readout_name  unit_text  endpoint_value
0  CCCCNc1cc(C(=O)OCc2ccc(OC)cc2)cc(S(N)(=O)=O)c1Oc1ccccc1  % of Control Value          %            92.6
1  CCCCNc1cc(C(=O)NN2CCCCC2)cc(S(N)(=O)=O)c1Oc1ccccc1  % of Control Value          %            77.3
2  CCCCNc1cc(C(=O)N[C@H](C)c2ccccc2)cc(S(N)(=O)=O)c1Oc1ccccc1  % of Control Value          %            93.5
3  CCCCNc1cc(C(=O)OCCCCc2ccccc2)cc(S(N)(=O)=O)c1Oc1ccccc1  % of Control Value          %            78.9
